// data source = paper PMC2756588

Parameter SPOT intensity: see the listing below.
Molecular target: T1, Nbp2, Q12163
T1 sequence (Q12163 103-180, looked up): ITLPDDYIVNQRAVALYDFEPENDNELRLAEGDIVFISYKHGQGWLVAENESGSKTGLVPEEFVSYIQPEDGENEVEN
Experiment: SPOT array
Settings: median of control spots 357
Format: numeric value only, no unit, no commentary.

Here are 10 binders together with their reported answers.
{"columns": ["binder", "measured result"],
 "data": [
  ["MARRRLPDRPPNGIG", 3],
  ["GQYRRTIVIPRRFFT", 120],
  ["HRRRRVFSIPSLKSI", 176],
  ["RRLRDKYKLPIVDAD", 7],
  ["RVTRKRPREPKSTND", 40],
  ["STKKPRPPVKSKPKH", 0],
  ["IAPIPMPKPNPTHIS", 1],
  ["ISPPASPPPEFDFSK", 0],
  ["QLLNPNRRAPRRPLS", 1130],
  ["NAGIRPKFILALNDE", 2]
]}

Query: Given the binder "PPPPPPPPPPPLPQS" , what is its reported SPOT intensity?
Reply: 0

Query: Given the binder "SSAAPPPPPRRATPE" , what is its reported SPOT intensity?
Reply: 0

Query: Given the binder "NTMKKRPAPPSLPSL" , what is its reported SPOT intensity?
Reply: 120
